# TGT: PD-1/PD-L1 interaction (PD-1-Ig / PD-L1-His) (Homo sapiens (Human), UniProt Q9NZQ7)
# Sequence (Q9NZQ7 other isoform, or with tags, fused parts or gaps): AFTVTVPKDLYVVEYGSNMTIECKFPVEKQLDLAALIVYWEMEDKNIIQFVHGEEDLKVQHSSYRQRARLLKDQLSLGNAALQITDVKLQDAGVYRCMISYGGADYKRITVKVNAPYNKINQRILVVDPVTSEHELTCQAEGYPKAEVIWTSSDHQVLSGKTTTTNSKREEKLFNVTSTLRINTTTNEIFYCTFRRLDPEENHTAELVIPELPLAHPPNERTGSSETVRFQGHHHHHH
# METHOD_DESCRIPTION: PD-1/PD-L1 Homogenous Time-Resolved Fluorescence (HTRF) binding assay
# STATED_CONDITIONS: PD-L1-His 10 nM final, PD-1-Ig 20 nM final
RECORDED_ENDPOINT: IC50

Exercise: Specify measured IC50 for O=C(CCCN1CC[C@@H](O)C1)N1CCCC2(CCCN(C(=O)CCCN3CC[C@@H](O)C3)C2)C1 .
Solution: 0.84 µM

Exercise: Specify measured IC50 for C[C@@](CO)(NCc1cc(Cl)c(CCC(=O)N2CCCC3(CCCN(C(=O)CCCN4CC[C@@H](OCc5ccccc5)C4)C3)C2)cc1OCc1cncc(C(N)=O)c1)C(=O)O (some centres unmarked) .
Solution: > 10 µM

Exercise: Specify measured IC50 for C[C@@](CO)(NCc1cc(Cl)c(CCC(=O)N2CCCC3(CCCN(C(=O)CCCN4CC[C@@H](OCc5ccccc5)C4)C3)C2)cc1OCc1cncc(C#N)c1)C(=O)O (some centres unmarked) .
Solution: > 10 µM

Exercise: Specify measured IC50 for COC(=O)c1cncc(COc2cc(CCC(=O)N3CCCC4(CCCN(C(=O)CCCN5CC[C@@H](OCc6ccccc6)C5)C4)C3)c(Cl)cc2CN[C@@](C)(CO)C(=O)O)c1 (some centres unmarked) .
Solution: > 10 µM

Exercise: Specify measured IC50 for O=C(CCCN1CC[C@@H](OCc2ccccc2)C1)N1CCCC2(CCCN(C(=O)CCCN3CC[C@@H](OCc4ccccc4)C3)C2)C1 .
Solution: > 2.5 µM
